Data origin: ChEMBL document CHEMBL4622915

- PROCEDURE_SUMMARY: Anticancer activity against rat ASK cells assessed as reduction in cell viability measured after 72 hrs by SRB assay
- Type: functional, cell-based
pIC50: −log10 of the molar value.

# MOLECULE, pIC50
rows = [
    ("C=C1CC[C@@H]2[C@](C)(COC(C)=O)[C@H](OC(C)=O)CC[C@@]2(C)[C@@H]1C[C@H](SC(=S)N1CCN(C(c2ccc(F)cc2)c2ccc(F)cc2)CC1)C1=CCOC1=O", "< 4.30"),
    ("C=C1CC[C@@H]2[C@](C)(COC(C)=O)[C@H](OC(C)=O)CC[C@@]2(C)[C@@H]1C[C@H](SC(=S)N1CCN(C(c2ccccc2)c2ccccc2)CC1)C1=CCOC1=O", "< 4.30"),
    ("C=C1CC[C@@H]2[C@](C)(COC(C)=O)[C@H](OC(C)=O)CC[C@@]2(C)[C@@H]1C[C@H](SC(=S)N1CCN(C(c2ccccc2)c2ccc(Cl)cc2)CC1)C1=CCOC1=O (stereo partly drawn)", "< 4.30"),
]

###

Measured IC50 accompanies every entry in the list below.
- Test system: HuCC-A1
- PROCEDURE_SUMMARY: Anticancer activity against human HuCCa1 cells assessed as reduction in cell viability measured after 72 hrs by SRB assay
- Format: functional, cell-based
- EXPERIMENTAL_CONDITIONS: HuCC-A1, 72 h

# COMPOUND, READOUT_QUALIFIER, IC50 [µM]
records = [
    ("C=C1CC[C@@H]2[C@](C)(COC(C)=O)[C@H](OC(C)=O)CC[C@@]2(C)[C@@H]1C[C@H](SC(=S)N1CCN(C(c2ccccc2)c2ccc(Cl)cc2)CC1)C1=CCOC1=O (stereo partly drawn)", ">", 50),
    ("C=C1CC[C@@H]2[C@](C)(COC(C)=O)[C@H](OC(C)=O)CC[C@@]2(C)[C@@H]1C[C@H](SC(=S)N1CCN(C(c2ccc(F)cc2)c2ccc(F)cc2)CC1)C1=CCOC1=O", ">", 50),
    ("C=C1CC[C@@H]2[C@](C)(COC(C)=O)[C@H](OC(C)=O)CC[C@@]2(C)[C@@H]1C[C@H](SC(=S)N(C)Cc1ccc(F)cc1)C1=CCOC1=O", "=", 7.78),
    ("C=C1CC[C@@H]2[C@](C)(COC(C)=O)[C@H](OC(C)=O)CC[C@@]2(C)[C@@H]1C[C@H](SC(=S)N1CCOCC1)C1=CCOC1=O", "=", 4.79),
    ("C=C1CC[C@@H]2[C@](C)(COC(C)=O)[C@H](OC(C)=O)CC[C@@]2(C)[C@@H]1C[C@H](SC(=S)N1CCN(C(c2ccccc2)c2ccccc2)CC1)C1=CCOC1=O", ">", 50),
    ("C=C1CC[C@@H]2[C@](C)(CO)[C@H](O)CC[C@@]2(C)[C@@H]1C/C=C1/C(=O)OC[C@H]1O [ANDROGRAPHOLIDE]", "=", 23.6),
    ("C=C1CC[C@@H]2[C@](C)(COC(C)=O)[C@H](OC(C)=O)CC[C@@]2(C)[C@@H]1C[C@H](SC(=S)N1CCN(c2ccccc2F)CC1)C1=CCOC1=O", "=", 8.63),
    ("C=C1CC[C@@H]2[C@](C)(COC(C)=O)[C@H](OC(C)=O)CC[C@@]2(C)[C@@H]1C[C@H](SC(=S)N1CCN(c2ccc(C)cc2)CC1)C1=CCOC1=O", "=", 17.5),
]
